Target System: human S1P1 receptors (Homo sapiens)
Sequence (P21453 whole entry): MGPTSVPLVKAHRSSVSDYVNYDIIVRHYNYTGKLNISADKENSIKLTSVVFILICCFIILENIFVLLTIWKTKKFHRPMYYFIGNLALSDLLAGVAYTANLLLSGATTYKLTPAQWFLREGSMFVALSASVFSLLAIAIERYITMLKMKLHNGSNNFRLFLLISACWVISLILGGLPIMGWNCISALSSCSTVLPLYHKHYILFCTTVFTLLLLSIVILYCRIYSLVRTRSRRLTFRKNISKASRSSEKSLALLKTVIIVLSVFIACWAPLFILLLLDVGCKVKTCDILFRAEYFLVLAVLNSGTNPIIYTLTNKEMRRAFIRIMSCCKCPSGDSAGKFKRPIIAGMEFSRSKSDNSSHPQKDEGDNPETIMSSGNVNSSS
Assay Protocol: S1P1R antagonist assay (fluorescent membrane potential dye, cAMP readout)
Measurement Context: HEK293 cells expressing human S1P1 receptors and CNG channel; 500 nM NECA; S1P1R agonist 10 nM; 90 minutes; read-out: EC50 or IC50 value
IC50 values by entry

Consider the worked cases shown below.
O=C(NC(COCc1ccccc1)C(=O)Nc1ccc(Oc2ccccc2)cc1)C1CCOC1 (centres unmarked) :: ≤ 300 nM
O=C(CN1CCC(Cc2ccccc2)CC1)N[C@@H](COCc1ccccc1)C(=O)Nc1ccc(Oc2ccc(F)cc2)cc1 :: 300 to 1000 nM
CN(CC(=O)NC(COCc1ccccc1)C(=O)Nc1ccc(Oc2ccccc2)cc1)C(=O)c1ccccc1 (centres unmarked) :: 300 to 1000 nM
O=C(Cc1cnc[nH]1)N[C@@H](COCc1ccccc1)C(=O)Nc1ccc(Oc2ccc(Cl)cc2)c(Cl)c1 :: ≤ 300 nM
CCCCc1ccc(C(=O)NC(COCc2ccccc2)C(=O)Nc2ccc(Oc3ccccc3)cc2)nc1 (centres unmarked) :: 300 to 1000 nM

Field: next compound
Inquiry: # lookup: IC50 of O=C(Nc1ccc(Oc2ccc(F)cc2)cc1)[C@@H]1C[C@@H](Cc2ccccc2)CN1C(=O)CSc1ncccn1
Reply text: ≤ 300 nM
